Cited source for all entries: patent US20150307520A1

TARGET_UNDER_TEST: p110γ (Homo sapiens, UniProt P48736)
Sequence (P48736 whole entry): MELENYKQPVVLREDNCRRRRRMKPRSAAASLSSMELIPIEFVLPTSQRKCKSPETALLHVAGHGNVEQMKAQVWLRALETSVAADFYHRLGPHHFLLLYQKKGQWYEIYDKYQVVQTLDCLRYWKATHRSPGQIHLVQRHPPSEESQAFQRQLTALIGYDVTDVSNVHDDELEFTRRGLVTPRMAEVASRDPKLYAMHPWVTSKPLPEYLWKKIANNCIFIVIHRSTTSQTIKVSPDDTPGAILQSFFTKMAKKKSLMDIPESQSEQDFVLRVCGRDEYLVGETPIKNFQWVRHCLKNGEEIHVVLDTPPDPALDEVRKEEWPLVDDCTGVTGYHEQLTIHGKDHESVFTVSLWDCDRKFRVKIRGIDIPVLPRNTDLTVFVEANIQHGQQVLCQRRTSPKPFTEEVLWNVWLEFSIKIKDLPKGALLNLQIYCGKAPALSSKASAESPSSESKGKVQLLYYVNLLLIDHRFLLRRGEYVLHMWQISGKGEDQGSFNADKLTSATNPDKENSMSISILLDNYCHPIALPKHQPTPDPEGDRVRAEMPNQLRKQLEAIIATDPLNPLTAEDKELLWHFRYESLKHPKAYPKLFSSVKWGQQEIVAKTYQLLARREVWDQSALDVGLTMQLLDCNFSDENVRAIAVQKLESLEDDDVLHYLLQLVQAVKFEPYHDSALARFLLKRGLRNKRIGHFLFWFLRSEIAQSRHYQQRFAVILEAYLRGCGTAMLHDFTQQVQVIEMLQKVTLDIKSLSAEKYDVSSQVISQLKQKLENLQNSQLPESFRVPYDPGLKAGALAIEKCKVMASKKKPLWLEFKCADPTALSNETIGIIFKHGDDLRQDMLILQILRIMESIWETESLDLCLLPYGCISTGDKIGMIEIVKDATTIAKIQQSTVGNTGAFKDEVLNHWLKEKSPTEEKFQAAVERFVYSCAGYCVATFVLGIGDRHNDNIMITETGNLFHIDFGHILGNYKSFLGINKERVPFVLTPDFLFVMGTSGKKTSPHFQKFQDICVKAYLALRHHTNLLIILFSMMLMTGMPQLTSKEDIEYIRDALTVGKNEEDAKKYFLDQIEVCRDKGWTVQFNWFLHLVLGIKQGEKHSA
METHOD_DESCRIPTION: Transcreener KINASE Assay, kinase inhibition of p110γ
Format: biochemical
RECORDED_CONDITIONS: 1 uM test compound
Procedure: Kinase Inhibition assays of p110α/p85α, p110β/p85α, p110δ/p85α and p110γ PI3K kinases including p110α/p85α, p110δ/p85α and p110γ are purchased from Invitrogen, and p110β/p85α is from Millipore. Primary screening data and IC50 values are measured using Transcreener™ KINASE Assay (Bellbrook, Catalog #3003-10K). […] The plate is sealed again and incubated for 60 min at room temperature, and then measure fluorescence polarization by Tecan Infinite F500 Reader. […]
OUTCOME_MEASURE: PI3Kγ IH % @ 1 uM (%)
Write the number in % without appending the unit.

Answered cases to consult:
CC(Nc1ncnc2[nH]cnc12)c1cc2cccn2c(=O)n1-c1ccccc1 (stereo not shown)    85.6
C[S+]([O-])c1c[nH]c2ncnc(N3CCC[C@H]3c3nn4ccc(Cl)c4c(=O)n3-c3ccc(F)cc3)c12 (stereo partly shown)    89.6
Nc1nc2cccc(N3CCC[C@H]3c3nn4ccc(Cl)c4c(=O)n3-c3ccccc3)n2n1    11.9

Ask: Please indicate PI3Kγ IH % @ 1 uM recorded for CO/N=C(\C)c1c[nH]c2ncnc(N3CCC[C@H]3c3nn4ccc(Cl)c4c(=O)n3-c3ccccc3)c12
Result: 96.7
